testDescription: physchem
details: aqueous with cosolvent or surfactant or cyclodextrin, thermodynamic from solid, solubility, steroid alone in aqueous HPβCD 130 mg/mL
metric: solubility
Please answer in the form of a number followed by its unit of measurement.

Lookup: Which solubility is reported for this compound? C[C@]12CC[C@H]3[C@@H](CCC4=CC(=O)CC[C@@]43C)[C@@H]1CC[C@@H]2O
Found: 11.6 mg/mL

* * *

testDescription: physchem
details: aqueous with cosolvent or surfactant or cyclodextrin, thermodynamic from solid, solubility, steroid alone in aqueous HPβCD 160 mg/mL
metric: solubility (mg/mL)
I only need the number, in mg/mL, no unit after it.

Lookup: So what does the record say about solubility for C[C@]12CC[C@H]3[C@@H](CCC4=CC(=O)CC[C@@]43C)[C@@H]1CC[C@@H]2O [Testosterone, testosterone] ?
Found: 13.9
